compounds and their reported % inhibition Apo pol 5'
biological target: P. falciparum apicoplast DNA polymerase (Pf-apPOL) (Plasmodium falciparum, UniProt Q8ILY1); assay: Fluorescence-based high-throughput DNA polymerase assay (molecular beacon), primary screen and dose-response; assay type: biochemical; conditions: DRC-2; 5'; concentration 80
Sequence (Q8ILY1 entry or part of it): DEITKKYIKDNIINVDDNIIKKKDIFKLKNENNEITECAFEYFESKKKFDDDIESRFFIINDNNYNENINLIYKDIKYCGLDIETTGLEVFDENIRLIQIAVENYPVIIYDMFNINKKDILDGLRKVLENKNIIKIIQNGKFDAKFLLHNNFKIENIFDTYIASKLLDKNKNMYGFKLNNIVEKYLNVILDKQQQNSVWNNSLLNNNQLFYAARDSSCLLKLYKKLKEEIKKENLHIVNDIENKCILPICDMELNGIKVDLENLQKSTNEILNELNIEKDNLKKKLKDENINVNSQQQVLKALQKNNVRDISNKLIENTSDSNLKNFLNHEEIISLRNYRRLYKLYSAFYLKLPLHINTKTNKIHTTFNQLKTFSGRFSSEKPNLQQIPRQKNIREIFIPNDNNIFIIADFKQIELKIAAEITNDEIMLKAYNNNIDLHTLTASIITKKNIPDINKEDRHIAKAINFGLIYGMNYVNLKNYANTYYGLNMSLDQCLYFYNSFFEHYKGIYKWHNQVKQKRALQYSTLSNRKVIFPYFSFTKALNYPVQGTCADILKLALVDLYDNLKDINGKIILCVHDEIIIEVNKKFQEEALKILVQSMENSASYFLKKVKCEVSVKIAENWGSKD

| structure.string | unit.spec | % inhibition Apo pol 5' |
| --- | --- | --- |
| O=c1cc(-c2ccccc2Cl)oc2c(NS(=O)(=O)c3cc(Cl)cc(Cl)c3O)ccc(O)c12 | % | 65 |
| COc1cccc(Oc2c(C(F)(F)F)oc3cc(OC(=O)N(C)C)ccc3c2=O)c1 | % | 42 |
| N#CC(=NNc1cc(C(F)(F)F)cc(C(F)(F)F)c1)C(=O)c1ccco1 | % | 58 |
| Cc1ccc(CNC(=O)c2cnn3c(O)cc(CSc4ccc(Cl)cc4)nc23)cc1 | % | 68 |

Data provenance is paper PMC9090415.
